// each record: one item and its pKi for TYK2 (Homo sapiens (Human), UniProt P29597)
pKi: −log10 of the molar value.
Assay endpoint: pKi

1. N#Cc1cccc(F)c1-c1cc(-n2ccc(N3CCOC[C@H]3CO)n2)c2c(n1)CNC2=O [I-164]: 8.00 to 10.00
2. N#Cc1cccc(F)c1-c1cc(-n2ccc(N3CCC(F)C(O)C3)n2)c2c(n1)CNC2=O (centres unmarked) [I-160]: 10.00 to 11.05
3. N#Cc1cccc(F)c1-c1cc(-n2ccc(N3CCOCC(O)C3)n2)c2c(n1)CNC2=O (centres unmarked) [I-121]: 8.00 to 10.00
4. CN1CCN(C2CCCN(c3ccn(-c4cc(-c5c(F)cccc5C#N)nc5c4C(=O)NC5)n3)C2)CC1 (centres unmarked) [I-147]: 8.00 to 10.00
5. C[C@@H]1CC(O)C[C@@H](C)N1c1ccn(-c2cc(-c3c(F)cccc3C#N)nc3c2C(=O)NC3)n1 (some centres unmarked) [I-106]: 7.00 to 8.00
6. N#Cc1cccc(F)c1-c1cc(-n2ccc(N3CCCC(C(N)=O)C3)n2)c2c(n1)CNC2=O (centres unmarked) [I-122]: 8.00 to 10.00
7. N#Cc1cccc(F)c1-c1cc(-n2ccc(C3CCOCC3)n2)c2c(n1)CNC2=O [I-16]: 8.00 to 10.00
8. N#Cc1cccc(F)c1-c1cc(-n2ccc(N3CC[C@H](C#N)[C@@H](O)C3)n2)c2c(n1)CNC2=O [I-216]: 8.00 to 10.00
9. N#Cc1cccc(F)c1-c1cc(-n2ccc(N3CC[C@@H](O)[C@@H](N4CCOCC4)C3)n2)c2c(n1)CNC2=O [I-218]: 8.00 to 10.00
10. CC(=O)N[C@@H]1CCCN(c2ccn(-c3cc(-c4c(F)cccc4C#N)nc4c3C(=O)NC4)n2)C1 [I-129]: 8.00 to 10.00
11. [2H]C1([2H])N(c2ccn(-c3cc(-c4c(F)cccc4C#N)nc4c3C(=O)NC4)n2)C([2H])([2H])C([2H])(O)C1([2H])[2H] (centres unmarked) [I-194]: 8.00 to 10.00
12. N#Cc1cccc(F)c1-c1cc(-n2ccc(N3CCC(O)(C(=O)N4CCCC4)C3)n2)c2c(n1)CNC2=O (centres unmarked) [I-191]: 8.00 to 10.00
13. N#Cc1cccc(F)c1-c1cc(-n2ccc(N3CCC[C@@](N)(C(F)(F)F)C3)n2)c2c(n1)CNC2=O [I-118]: 10.00 to 11.05
14. [2H]C1([2H])N(c2ccn(-c3cc(-c4c(F)cccc4C#N)nc4c3C(=O)NC4)n2)C([2H])([2H])C([2H])([2H])C([2H])(O)C1([2H])[2H] [I-203]: 8.00 to 10.00
15. N#Cc1cccc(F)c1-c1cc(-n2ccc(N3CCC(N4CCCC4)CC3)n2)c2c(n1)CNC2=O [I-66]: 8.00 to 10.00
16. N#Cc1cccc(F)c1-c1cc(-n2cc3c(n2)CC(C(N)=O)CN3)c2c(n1)CNC2=O (centres unmarked) [I-180]: 8.00 to 10.00
17. CC1O[C@H]2CN(c3ccn(-c4cc(-c5c(F)cccc5C#N)nc5c4C(=O)NC5)n3)C[C@H]2O1 (some centres unmarked) [I-161]: 8.00 to 10.00
18. N#Cc1cccc(F)c1-c1cc(-n2ccc(N3CCC[C@H](C(N)=O)C3)n2)c2c(n1)CNC2=O [I-126]: 8.00 to 10.00
19. N#Cc1cccc(F)c1-c1cc(-n2ccc(N3CCCC(C#N)C3)n2)c2c(n1)CNC2=O (centres unmarked) [I-95]: 8.00 to 10.00
20. CC1CCC(O)CN1c1ccn(-c2cc(-c3c(F)cccc3C#N)nc3c2C(=O)NC3)n1 (centres unmarked) [I-96]: 8.00 to 10.00

====

System: Tyk2-pSTAT4 (IL-12 induced pSTAT4)
Test name: IL-12 induced pSTAT4 in human PBMC
Type: cell-based
Condition set: Homo sapiens, PBMC, 0.5 h, 1.7 ng/mL IL-12, 30 minutes
Consider the following compounds and their measured EC50 readings.
Assay endpoint: EC50

1) N#Cc1cccc(F)c1-c1cc(-n2cc(F)c(N3CC[C@H](O)C3)n2)c2c(n1)CNC2=O: 100 to 2000 nM
2) N#Cc1cccc(F)c1-c1cc(-n2ccc(N3CCC4(C3)OCCO4)n2)c2c(n1)CNC2=O: 30 to 100 nM
3) N#Cc1cccc(F)c1-c1cc(-c2ccn([C@@H]3COC[C@@H]3O)n2)c2c(n1)CNC2=O: 100 to 2000 nM
4) [2H]C([2H])([2H])C1(O)C([2H])([2H])N(c2ccn(-c3cc(-c4c(F)cccc4C#N)nc4c3C(=O)NC4)n2)C([2H])([2H])C1([2H])[2H] (stereo not drawn): 30 to 100 nM
5) N#Cc1cccc(F)c1-c1cc(-n2ccc(N3CC[C@@H](C#N)C3)n2)c2c(n1)CNC2=O: 30 to 100 nM
6) N#Cc1cccc(F)c1-c1cc(-n2ccc(N3CCCC(C#N)C3)n2)c2c(n1)CNC2=O (stereo not drawn): 30 to 100 nM
7) CO[C@H]1CN(c2ccn(-c3cc(-c4c(F)cccc4C#N)nc4c3C(=O)NC4)n2)C[C@H]1O: 30 to 100 nM
8) [2H]C1([2H])NC(=O)c2c(-n3ccc(N4CCC[C@@](C)(O)C4)n3)cc(-c3c(F)cccc3C#N)nc21: 30 to 100 nM
9) N#Cc1cccc(F)c1-c1cc(-n2ccc(N3CC[C@@H](O)C3)n2)c2c(n1)CNC2=O: 30 to 100 nM
10) N#Cc1cccc(F)c1-c1cc(-n2ccc(N3CCC[C@@](N)(C(F)(F)F)C3)n2)c2c(n1)CNC2=O: 30 to 100 nM
11) N#Cc1cccc(F)c1-c1cc(-n2ccc(N3CC[C@]4(C3)OC[C@H](O)CO4)n2)c2c(n1)CNC2=O: 100 to 2000 nM
12) CC(=O)Nc1cnn(-c2cc(-c3c(F)cccc3C#N)nc3c2C(=O)NC3)c1: > 2000 nM
13) N#Cc1cccc(F)c1-c1cc(-n2ccc(N3CCC[C@@H](O)[C@@H](O)C3)n2)c2c(n1)CNC2=O: 30 to 100 nM
14) [2H]C1([2H])CC(O)(C([2H])([2H])[2H])C([2H])([2H])N1c1ccn(-c2cc(-c3c(F)cccc3C#N)nc3c2C(=O)NC3)n1 (stereo not drawn): 30 to 100 nM
15) N#Cc1cccc(F)c1-c1cc(-n2ccc(N3CC[C@H](O)[C@H](O)C3)n2)c2c(n1)CNC2=O: 30 to 100 nM

====

Tested on: Tyk2-pSTAT4 (IL-12 induced pSTAT4)
Test name: IL-12 induced pSTAT4 in human PBMC
Format: cell-based
Condition set: Homo sapiens, PBMC, 0.5 h, 1.7 ng/mL IL-12, 30 minutes
Known EC50 of a selection of compounds
Assay endpoint: EC50

1) CC1=C(c2ccn(-c3cc(-c4c(F)cccc4C#N)nc4c3C(=O)NC4)n2)CNC1=O: 100 to 2000 nM
2) N#Cc1cccc(F)c1-c1cc(-n2ccc(N3CCCNC(=O)C3)n2)c2c(n1)CNC2=O: 100 to 2000 nM
3) N#Cc1cccc(F)c1-c1cc(-n2ccc(N3CCOC[C@@H](O)C3)n2)c2c(n1)CNC2=O: 30 to 100 nM
4) CC1(C)[C@H](O)CCN1c1ccn(-c2cc(-c3c(F)cccc3C#N)nc3c2C(=O)NC3)n1: 30 to 100 nM
5) CC(=O)N[C@H]1CCCN(c2ccn(-c3cc(-c4c(F)cccc4C#N)nc4c3C(=O)NC4)n2)C1: 100 to 2000 nM
6) N#Cc1cccc(F)c1-c1cc(-n2ccc(N3CCCC(C(=O)N4CCCC4)C3)n2)c2c(n1)CNC2=O (stereo not drawn): 100 to 2000 nM
7) CN1CCN([C@@H]2CCCN(c3ccn(-c4cc(-c5c(F)cccc5C#N)nc5c4C(=O)NC5)n3)C2)CC1: 100 to 2000 nM
8) CC(C)c1ncn(-c2cc(-c3c(F)cccc3C#N)nc3c2C(=O)NC3)n1: > 2000 nM
9) N#Cc1cccc(F)c1-c1cc(-n2ccc(N3CCC[C@H](C(=O)N4CCCC4)C3)n2)c2c(n1)CNC2=O: 100 to 2000 nM
